Test system: HUH7 cells
Assay: Proliferation inhibitory effect for HUH7 cells (SRB assay)
Assay type: cell-based
Conditions: Homo sapiens, Huh-7, 72 hours, GI50, read-out: IC50 HUH7 Cell Line
pIC50: −log10 of the molar value.
Kindly supply the reported pIC50 values for the records listed here.

Recorded pIC50 for C=CC(=O)Nc1cc(O[C@@H]2CCOC2)c(C)cc1Nc1ncc2cc(-c3c(Cl)c(OC)cc(OC)c3Cl)c3nccn3c2n1 on HUH7 cells was 6.30 to 7.30

Recorded pIC50 for C=CC(=O)Nc1cc(N2CCCC2)ccc1Nc1ncc2cc(-c3c(Cl)c(OC)cc(OC)c3Cl)c3nccn3c2n1 on HUH7 cells was 6.30 to 7.30

Recorded pIC50 for C=CC(=O)Nc1cc(N2CC(OC)C2)ccc1Nc1ncc2cc(-c3c(Cl)c(OC)cc(OC)c3Cl)c3nccn3c2n1 on HUH7 cells was > 7.30

Recorded pIC50 for C=CC(=O)Nc1cc(C(C)C)ccc1Nc1ncc2cc(-c3c(Cl)c(OC)cc(OC)c3Cl)c3nccn3c2n1 on HUH7 cells was 6.30 to 7.30

Recorded pIC50 for C=CC(=O)Nc1ccc(F)c(F)c1Nc1ncc2cc(-c3c(F)c(OC)cc(OC)c3F)c3nccn3c2n1 on HUH7 cells was 6.30 to 7.30

Recorded pIC50 for C=CC(=O)Nc1cc(OCCN(C)C)ccc1Nc1ncc2cc(-c3c(Cl)c(OC)cc(OC)c3Cl)c3nccn3c2n1 on HUH7 cells was > 7.30

Recorded pIC50 for C=CC(=O)Nc1cc(N2CCN(C(=O)C3CC3)CC2)ccc1Nc1ncc2cc(-c3c(Cl)c(OC)cc(OC)c3Cl)c3nccn3c2n1 on HUH7 cells was > 7.30

----------
Kindly supply the reported IC50 values for the records listed here.
System: HUH7 cells
Experiment: Proliferation inhibitory effect for HUH7 cells (SRB assay)
Type: cell-based
Conditions: Homo sapiens, Huh-7, 72 hours, GI50, read-out: IC50 HUH7 Cell Line

Value of measured IC50 for the entry C=CC(=O)Nc1cc(OC2CCN(CC)CC2)ccc1Nc1ncc2cc(-c3c(Cl)c(OC)cc(OC)c3Cl)c3nccn3c2n1 : < 50 nM

Value of measured IC50 for the entry C=CC(=O)Nc1cc(N2CCOCC2)cnc1Nc1ncc2cc(-c3c(Cl)c(OC)cc(OC)c3Cl)c3nccn3c2n1 : 50 to 500 nM

Value of measured IC50 for the entry C=CC(=O)Nc1cc(N2CCN(C3CC3)CC2)ccc1Nc1ncc2cc(-c3c(Cl)c(OC)cc(OC)c3Cl)c3nccn3c2n1 : 50 to 500 nM

Value of measured IC50 for the entry C=CC(=O)NC1COCC1Nc1ncc2cc(-c3c(Cl)c(OC)cc(OC)c3Cl)c3nccn3c2n1 (stereo not shown) : 50 to 500 nM

Value of measured IC50 for the entry C=CC(=O)Nc1ccccc1Nc1ncc2cc(-c3c(Cl)c(OC)cc(OC)c3Cl)c3nccn3c2n1 [Synthesis Example 6] : < 50 nM

Value of measured IC50 for the entry C=CC(=O)Nc1cc(N2CCOCC2)ccc1Nc1cc2c(cn1)cc(-c1c(Cl)c(OC)cc(OC)c1Cl)c1nccn12 [Synthesis Example 83] : < 50 nM

Value of measured IC50 for the entry C=CC(=O)Nc1cc(N(C)CCOC)ccc1Nc1ncc2cc(-c3c(Cl)c(OC)cc(OC)c3Cl)c3nccn3c2n1 : < 50 nM

----------
System: HUH7 cells
Test: Proliferation inhibitory effect for HUH7 cells (SRB assay)
Assay type: cell-based
Settings: Homo sapiens, Huh-7, 72 hours, GI50, read-out: IC50 HUH7 Cell Line
Experimental: Test Example 2: Measuring Inhibitory Effect of FGFR Inhibitor Using Cell Line The test was carried out for identifying a proliferation inhibitory effect of the compound of the present invention for HUH7 cells. HUH7 cell lines were counted and 5.0×10^3 cells were inoculated per well in a 96 well plate. […] Using a microplate reader, optical density (O.D. value) was measured at 540 nm. A GI50 value of each of the compounds was calculated using GraphPad Prism V6.0 Software.
ASSAY_READOUT: IC50

Value of measured IC50 for the entry C=CC(=O)Nc1cc(N2CCN(CC)CC2)ccc1Nc1ncc2cc(-c3c(Cl)c(OC)cc(OC)c3Cl)c3nccn3c2n1 : < 50 nM

Value of measured IC50 for the entry C#Cc1ccc(Nc2ncc3cc(-c4c(Cl)c(OC)cc(OC)c4Cl)c4nccn4c3n2)c(NC(=O)C=C)c1 : 50 to 500 nM

Value of measured IC50 for the entry C=CC(=O)Nc1cc(F)ccc1Nc1ncc2cc(-c3c(Cl)c(OC)cc(OC)c3Cl)c3nccn3c2n1 : 50 to 500 nM

Value of measured IC50 for the entry C=CC(=O)Nc1cc(N2CCN(CC)CC2)cc(F)c1Nc1ncc2cc(-c3c(Cl)c(OC)cc(OC)c3Cl)c3nccn3c2n1 : > 500 nM

Value of measured IC50 for the entry C=CC(=O)Nc1cc(N2CCNCC2)ccc1Nc1ncc2cc(-c3c(Cl)c(OC)cc(OC)c3Cl)c3nccn3c2n1 : < 50 nM

Value of measured IC50 for the entry C=CC(=O)Nc1cc(N2CCOCC2)c(C)cc1Nc1ncc2cc(-c3c(Cl)c(OC)cc(OC)c3Cl)c3nccn3c2n1 : < 50 nM

Value of measured IC50 for the entry C=CC(=O)Nc1cc(S(C)(=O)=O)ccc1Nc1ncc2cc(-c3c(Cl)c(OC)cc(OC)c3Cl)c3nccn3c2n1 : 50 to 500 nM

----------
Test system: HUH7 cells
Test: Proliferation inhibitory effect for HUH7 cells (SRB assay)
Assay type: cell-based
Conditions: Homo sapiens, Huh-7, 72 hours, GI50, read-out: IC50 HUH7 Cell Line
Kindly supply the reported IC50 values for the records listed here.

Recorded IC50 for C=CC(=O)Nc1cc(C#N)ccc1Nc1ncc2cc(-c3c(Cl)c(OC)cc(OC)c3Cl)c3nccn3c2n1 [compound 17] on HUH7 cells was 50 to 500 nM

Recorded IC50 for C=CC(=O)Nc1cc(CC)ccc1Nc1ncc2cc(-c3c(Cl)c(OC)cc(OC)c3Cl)c3nccn3c2n1 [compound 20] on HUH7 cells was 50 to 500 nM

Recorded IC50 for C=CC(=O)Nc1cc(N2CCOC(C)C2)ccc1Nc1ncc2cc(-c3c(Cl)c(OC)cc(OC)c3Cl)c3nccn3c2n1 (stereo not shown) [compound 49] on HUH7 cells was < 50 nM

Recorded IC50 for C=CC(=O)Nc1cc(N2CCC(OC)C2)ccc1Nc1ncc2cc(-c3c(Cl)c(OC)cc(OC)c3Cl)c3nccn3c2n1 (stereo not shown) [compound 41] on HUH7 cells was < 50 nM

----------
Kindly supply the reported IC50 values for the records listed here.
Test system: HUH7 cells
Assay: Proliferation inhibitory effect for HUH7 cells (SRB assay)
Format: cell-based
Settings: Homo sapiens, Huh-7, 72 hours, GI50, read-out: IC50 HUH7 Cell Line

Value of measured IC50 for the entry C=CC(=O)Nc1cc(OC2CCN(C)CC2)c(F)cc1Nc1ncc2cc(-c3c(Cl)c(OC)cc(OC)c3Cl)c3nccn3c2n1 [compound 62] : < 50 nM

Value of measured IC50 for the entry C=CC(=O)Nc1cc(C)cc(C)c1Nc1ncc2cc(-c3c(Cl)c(OC)cc(OC)c3Cl)c3nccn3c2n1 [compound 58] : 50 to 500 nM

Value of measured IC50 for the entry C=CC(=O)Nc1cc(N2CC(O)C2)ccc1Nc1ncc2cc(-c3c(Cl)c(OC)cc(OC)c3Cl)c3nccn3c2n1 [compound 45] : < 50 nM

Value of measured IC50 for the entry C=CC(=O)Nc1cc(N2CCC(OC)CC2)ccc1Nc1ncc2cc(-c3c(Cl)c(OC)cc(OC)c3Cl)c3nccn3c2n1 [compound 40] : < 50 nM

Value of measured IC50 for the entry COc1cc(OC)c(Cl)c(-c2cc3cnc(-c4cncc(N5CCOCC5)c4)nc3n3ccnc23)c1Cl [compound 81] : > 500 nM

Value of measured IC50 for the entry COc1cc(OC)c(Cl)c(-c2cc3cnc(Nc4ccc(N5CCOCC5)cc4NC(=O)/C=C/CN(C)C)nc3n3ccnc23)c1Cl [compound 34] : 50 to 500 nM

Value of measured IC50 for the entry C=CC(=O)Nc1cn(C)nc1Nc1ncc2cc(-c3c(Cl)c(OC)cc(OC)c3Cl)c3nccn3c2n1 [compound 71] : 50 to 500 nM

Value of measured IC50 for the entry C=CC(=O)Nc1cc(N2CCOCC2)ccc1Nc1ncc2cc(-c3c(Cl)c(OC)cc(OC)c3Cl)c3nccn3c2n1 [compound 32] : < 50 nM

Value of measured IC50 for the entry C=CC(=O)Nc1cc(C2CC2)ccc1Nc1ncc2cc(-c3c(Cl)c(OC)cc(OC)c3Cl)c3nccn3c2n1 [compound 21] : 50 to 500 nM

----------
pIC50: −log10 of the molar value.
ASSAY_READOUT: pIC50

Recorded pIC50 for C=CC(=O)Nc1cc(C)cc(C)c1Nc1ncc2cc(-c3c(Cl)c(OC)cc(OC)c3Cl)c3nccn3c2n1 on FGFR1 (Homo sapiens, UniProt P11362) was < 6.30

Recorded pIC50 for C=CC(=O)Nc1cccc(F)c1Nc1ncc2cc(-c3c(F)c(OC)cc(OC)c3F)c3nccn3c2n1 [Synthesis Example 72] on FGFR1 (Homo sapiens, UniProt P11362) was < 6.30

Recorded pIC50 for C=CC(=O)Nc1cc(N2CCOCC2)ccc1Nc1cc2c(cn1)cc(-c1c(Cl)c(OC)cc(OC)c1Cl)c1nccn12 [Synthesis Example 83] on FGFR1 (Homo sapiens, UniProt P11362) was > 7.30

Recorded pIC50 for C=CC(=O)Nc1cc(N2CCOCC2)cc(C)c1Nc1ncc2cc(-c3c(Cl)c(OC)cc(OC)c3Cl)c3nccn3c2n1 on FGFR1 (Homo sapiens, UniProt P11362) was 6.30 to 7.30

Recorded pIC50 for C=CC(=O)Nc1cc(N2CCS(=O)(=O)CC2)ccc1Nc1ncc2cc(-c3c(Cl)c(OC)cc(OC)c3Cl)c3nccn3c2n1 on FGFR1 (Homo sapiens, UniProt P11362) was > 7.30

Recorded pIC50 for C=CC(=O)Nc1cc(N2CCN(CC)CC2)ccc1Nc1cc2c(cn1)cc(-c1c(Cl)c(OC)cc(OC)c1Cl)c1nccn12 on FGFR1 (Homo sapiens, UniProt P11362) was > 7.30

Recorded pIC50 for C=CC(=O)Nc1cc(OC2CCCC2)ccc1Nc1ncc2cc(-c3c(Cl)c(OC)cc(OC)c3Cl)c3nccn3c2n1 on FGFR1 (Homo sapiens, UniProt P11362) was < 6.30

Recorded pIC50 for C=CC(=O)Nc1cc(S(C)(=O)=O)ccc1Nc1ncc2cc(-c3c(Cl)c(OC)cc(OC)c3Cl)c3nccn3c2n1 on FGFR1 (Homo sapiens, UniProt P11362) was > 7.30

Recorded pIC50 for C=CC(=O)Nc1cccc(F)c1Nc1ncc2cc(-c3c(Cl)c(OC)cc(OC)c3Cl)c3nccn3c2n1 on FGFR1 (Homo sapiens, UniProt P11362) was 6.30 to 7.30

Recorded pIC50 for C=CC(=O)Nc1cc(N2C[C@@H](C)O[C@@H](C)C2)ccc1Nc1ncc2cc(-c3c(Cl)c(OC)cc(OC)c3Cl)c3nccn3c2n1 on FGFR1 (Homo sapiens, UniProt P11362) was > 7.30

Recorded pIC50 for C=CC(=O)Nc1cc(N2CCN(C)CC2)ccc1Nc1ncc2cc(-c3c(Cl)c(OC)cc(OC)c3Cl)c3nccn3c2n1 on FGFR1 (Homo sapiens, UniProt P11362) was > 7.30

src = patent US10696675B2
